Recorded Ki values for a group of molecules are listed next.
- Test Target: dopamine D2 receptor (D2CHO cells) (Homo sapiens, UniProt P14416)
- Construct: expressed in transfected cells; host or cells: CHO cells (D2CHO)
- Sequence (P14416 whole entry): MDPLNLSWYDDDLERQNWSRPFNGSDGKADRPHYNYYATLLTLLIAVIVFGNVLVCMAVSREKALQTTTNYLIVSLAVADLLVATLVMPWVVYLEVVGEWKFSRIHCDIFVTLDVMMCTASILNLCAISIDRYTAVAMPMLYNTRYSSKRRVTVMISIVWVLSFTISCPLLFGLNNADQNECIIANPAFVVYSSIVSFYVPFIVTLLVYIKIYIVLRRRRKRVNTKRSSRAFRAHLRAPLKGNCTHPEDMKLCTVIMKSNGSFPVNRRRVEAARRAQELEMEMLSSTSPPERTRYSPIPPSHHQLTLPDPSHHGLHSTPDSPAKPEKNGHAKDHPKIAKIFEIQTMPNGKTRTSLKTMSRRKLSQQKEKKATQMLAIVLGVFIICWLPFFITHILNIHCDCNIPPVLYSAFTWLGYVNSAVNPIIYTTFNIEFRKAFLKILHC
- Experiment Notes: binding experiments using D2CHO cells and Raclopride as the labeled ligand
- Condition Parameters: D2CHO cells, Raclopride as labeled ligand; read-out: In vitro binding Ki D2 (marked *)
Use µM as the unit, but write only the number.

[[record]]
molecule = "CCCN(CCC)C1CCc2cc3[nH]cc(C=O)c3cc2C1 (stereo not shown)"
value_units = "µM"
number = 0.278

[[record]]
molecule = "CCCN(CCC)[C@H]1CCc2c(ccc3[nH]cc(C=O)c23)[C@H]1C (relative stereo)"
value_units = "µM"
number = 0.924

[[record]]
molecule = "CCCN(CCC)[C@H]1CCc2c(ccc3[nH]ccc23)[C@H]1C (relative stereo)"
value_units = "µM"
number = 0.164


Next:
Record request: Ki value, item CCCN(CCC)C1CCc2c(ccc3c2NC(=O)C3=O)C1 (stereo not shown)
3.52
